Reference source for all entries: paper PMC8912008

protocolText: Stability of analytes in rat plasma
conditionDetails: rat plasma, three freeze/thaw cycles, high QC (nominal 200.50-201.50 ng/mL), n = 6
propertyLabel: Freeze-thaw stability (% ± SD) (%)
All answers are understood in %, so give the number only.

Check out these entries, answers already filled in.
Ask: # Freeze-thaw stability (% ± SD) lookup, item CC1=C(C)C(=O)O[C@@H]([C@@H](C)[C@H]2CC[C@H]3[C@@H]4CC=C5C[C@@H](O[C@@H]6O[C@H](CO[C@@H]7O[C@H](CO)[C@@H](O)[C@H](O)[C@H]7O)[C@@H](O)[C@H](O)[C@H]6O)C[C@H](O)[C@]5(C)[C@H]4CC[C@]23C)C1 [Withanoside V]
Reply: 99.38

Ask: Another molecule to look at: CC1=C(C)C(=O)O[C@@H]([C@](C)(O)[C@H]2CC[C@H]3[C@@H]4[C@@H]5O[C@@H]5[C@@]5(O)CC=CC(=O)[C@]5(C)[C@H]4CC[C@]23C)C1 [Withanolide A]
Reply: 98.89

Ask: Now try CC1=C(C)C(=O)O[C@@H]([C@@H](C)[C@@]2(O)CC[C@H]3[C@@H]4[C@@H]5O[C@@H]5[C@@]5(O)CC=CC(=O)[C@]5(C)[C@H]4CC[C@@]32C)C1 [Withanone] .
Reply: 98.14

Ask: Now this one: CC1=C(CO)C(=O)OC(C(C)C2CCC3C4C5OC5C5(O)CC=CC(=O)C5(C)C4CCC23C)C1 (stereo not shown) [12-Deoxy-withastramonolide]
Reply: 97.78

Next:
Ask: Fill in the blank: the reported Freeze-thaw stability (% ± SD) of CC1=C(CO)C(=O)O[C@@H]([C@@H](C)[C@H]2CC[C@H]3[C@@H]4CC=C5C[C@@H](O[C@@H]6O[C@H](CO[C@@H]7O[C@H](CO)[C@@H](O)[C@H](O)[C@H]7O)[C@@H](O)[C@H](O)[C@H]6O)C[C@H](O)[C@]5(C)[C@H]4CC[C@]23C)C1 [Withanoside IV] is ____.
Reply: 98.95

Ask: And CC1=C(CO)C(=O)O[C@@H]([C@@H](C)[C@H]2CC[C@H]3[C@@H]4C[C@H]5O[C@]56[C@@H](O)C=CC(=O)[C@]6(C)[C@H]4CC[C@]23C)C1 [Withaferin A] ?
Reply: 102.10

Ask: Okay, and CC1=C(C)C(=O)O[C@@H]([C@@H](C)[C@H]2CC[C@H]3[C@@H]4[C@@H]5O[C@@H]5[C@@]5(O)CC=CC(=O)[C@]5(C)[C@H]4CC[C@]23C)C1 [Withanolide B] ?
Reply: 93.48

* * *

Items are presented alongside their recorded Tmax.
protocolText: in vivo
conditionDetails: male, Sprague Dawley, rat, in vivo, po, 500 mg/kg
Experimental: It is known that the hydrophobic interior surface of the cell membrane (lipid bilayer) serves as a barrier to the passage of polar and high molecular weight molecules. Food pellets and tap water were provided ad libitum throughout the experimentation. […] Withania somnifera extract suspension was prepared in water for oral administration, and the dose was calculated based on the acute oral toxicity study (500 mg/kg; single dose). […]
The figure you give is taken to be in min; do not add the unit.

Ask: Give the measured Tmax of CC1=C(C)C(=O)O[C@@H]([C@](C)(O)[C@H]2CC[C@H]3[C@@H]4[C@@H]5O[C@@H]5[C@@]5(O)CC=CC(=O)[C@]5(C)[C@H]4CC[C@]23C)C1 [Withanolide A] .
Reply: 20

New cases:
Ask: I would be grateful if you could share the reported Tmax for CC1=C(CO)C(=O)OC(C(C)C2CCC3C4C5OC5C5(O)CC=CC(=O)C5(C)C4CCC23C)C1 (stereo not drawn) [12-Deoxy-withastramonolide] .
Reply: 17.5

Ask: Further, for CC1=C(CO)C(=O)O[C@@H]([C@@H](C)[C@H]2CC[C@H]3[C@@H]4CC=C5C[C@@H](O[C@@H]6O[C@H](CO[C@@H]7O[C@H](CO)[C@@H](O)[C@H](O)[C@H]7O)[C@@H](O)[C@H](O)[C@H]6O)C[C@H](O)[C@]5(C)[C@H]4CC[C@]23C)C1 [Withanoside IV] ?
Reply: 45
